- measured-target: Upc2 (UniProt Q12151)
- Sequence: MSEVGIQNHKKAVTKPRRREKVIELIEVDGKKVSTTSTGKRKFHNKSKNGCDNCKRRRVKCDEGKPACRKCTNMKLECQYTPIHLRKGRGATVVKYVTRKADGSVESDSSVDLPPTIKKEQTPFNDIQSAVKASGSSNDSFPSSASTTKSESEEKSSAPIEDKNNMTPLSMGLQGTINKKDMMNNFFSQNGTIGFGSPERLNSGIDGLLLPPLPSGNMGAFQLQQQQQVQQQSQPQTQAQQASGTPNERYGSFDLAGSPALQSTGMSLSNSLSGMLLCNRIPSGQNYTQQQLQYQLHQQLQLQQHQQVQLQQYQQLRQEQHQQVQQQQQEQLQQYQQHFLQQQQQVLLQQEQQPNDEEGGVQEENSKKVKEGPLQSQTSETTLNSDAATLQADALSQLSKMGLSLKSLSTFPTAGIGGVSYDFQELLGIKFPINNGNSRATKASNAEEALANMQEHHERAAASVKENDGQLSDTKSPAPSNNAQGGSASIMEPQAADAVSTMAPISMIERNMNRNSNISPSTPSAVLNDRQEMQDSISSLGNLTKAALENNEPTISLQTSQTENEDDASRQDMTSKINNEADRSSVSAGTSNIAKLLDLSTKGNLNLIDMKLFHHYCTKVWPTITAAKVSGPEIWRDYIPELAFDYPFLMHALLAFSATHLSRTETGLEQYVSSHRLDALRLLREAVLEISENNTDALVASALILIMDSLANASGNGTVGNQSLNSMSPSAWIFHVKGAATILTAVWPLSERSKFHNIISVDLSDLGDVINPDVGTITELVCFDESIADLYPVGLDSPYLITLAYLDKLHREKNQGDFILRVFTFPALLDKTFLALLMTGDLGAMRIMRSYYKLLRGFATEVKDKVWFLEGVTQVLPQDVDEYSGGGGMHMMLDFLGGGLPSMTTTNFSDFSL
- test-protocol: PBM E-score (8-mer binding enrichment) (E-score (-0.5 to 0.5)); higher = stronger / more preferred TF binding
- details: protein concentration: 200 nM; construct: GST-full length
In all, about 33,000 sequences were measured (“E-score (-0.5 to 0.5)”: median about -0.043, highest 2% from about 0.37 on). The list comes from a sample in which the highest values are over-represented; it also holds close analogues and randomly drawn sequences.
Use 0.02 as the dividing line for PBM E-score, with the line itself on the Met side and lower values as Not met.

INSERT INTO assay_data (biosequence, label) VALUES
  ('GACTCGCA', 'Not met'),
  ('GTGGGTCA', 'Not met'),
  ('ATTATAAC', 'Not met'),
  ('CGCCGTAA', 'Met'),
  ('GTGCTATA', 'Met'),
  ('ATTTGCGC', 'Met'),
  ('AGCATCCG', 'Met'),
  ('ATATCGTG', 'Met'),
  ('CATTCGTC', 'Met'),
  ('GATTCGGA', 'Met'),
  ('CAAGACAA', 'Not met'),
  ('ACTTCAGC', 'Not met'),
  ('GGCTAACC', 'Not met'),
  ('AGGACTTG', 'Not met'),
  ('GAGAGGGA', 'Not met'),
  ('CATTCGCA', 'Met'),
  ('GGCCGTAC', 'Met'),
  ('CCCCTTTA', 'Not met'),
  ('AGTTTACA', 'Not met'),
  ('GACTCGAA', 'Not met'),
  ('TCCAGCCA', 'Not met'),
  ('AGTTTACC', 'Met'),
  ('GAAGCAGA', 'Not met'),
  ('CAAATCTG', 'Not met'),
  ('GCCTCCGC', 'Not met'),
  ('CACTCGTA', 'Met'),
  ('CTTAACGA', 'Met'),
  ('CGCCGTAC', 'Met'),
  ('GATTCGCA', 'Met'),
  ('CCTTACAA', 'Not met'),
  ('CGGAAGTA', 'Met'),
  ('CGGCTGCC', 'Not met'),
  ('CACTCGAA', 'Not met'),
  ('AGGTGAAT', 'Not met'),
  ('GTTAACGA', 'Met'),
  ('GCTAACGA', 'Met'),
  ('CCTGGGGC', 'Not met'),
  ('ACCACGTG', 'Met'),
  ('CAACCTCG', 'Met'),
  ('CAAATAGA', 'Not met'),
  ('ACCAGAAT', 'Not met'),
  ('CGAAGCAC', 'Not met'),
  ('AAACGTAC', 'Met'),
  ('GTATCGAA', 'Met'),
  ('TAACTCAA', 'Not met'),
  ('CATCTTCA', 'Not met'),
  ('GACTCGTA', 'Met'),
  ('CTTAACGC', 'Met'),
  ('ATCTTACA', 'Not met'),
  ('GCCGCGTA', 'Met'),
  ('CACGTAAA', 'Met'),
  ('CCGGCTAA', 'Not met'),
  ('CTCGTAAA', 'Met'),
  ('GTATCGTA', 'Met'),
  ('ACTCTGGG', 'Not met'),
  ('AGCTTTAC', 'Met'),
  ('CTCCCACC', 'Not met'),
  ('ACTCCAAG', 'Not met'),
  ('CATCCACA', 'Not met'),
  ('GCTATGCC', 'Not met'),
  ('CGCCTATC', 'Not met'),
  ('ATTAACGC', 'Met'),
  ('CTCCACCC', 'Not met'),
  ('AGCCGTAC', 'Met'),
  ('GGTTTATA', 'Met'),
  ('ATTAACGA', 'Met'),
  ('ATCGAGGG', 'Not met'),
  ('ACGTGCTA', 'Met'),
  ('CCTTGTCC', 'Not met'),
  ('CCAACCCA', 'Not met'),
  ('AACTCGTG', 'Met'),
  ('ATATCGTC', 'Met'),
  ('CATAGTAC', 'Met'),
  ('CAGATTCC', 'Not met'),
  ('CACTCGTC', 'Not met'),
  ('ACGACACG', 'Met'),
  ('CTAAGTTC', 'Not met'),
  ('AACTCGTA', 'Met'),
  ('CTATCGTA', 'Met'),
  ('TAAATTGA', 'Not met'),
  ('CATTTACC', 'Not met'),
  ('ACCACTGG', 'Not met'),
  ('ACGACAGT', 'Met'),
  ('CGTAACGC', 'Met'),
  ('GTTAACTA', 'Met'),
  ('AAGCTTGG', 'Met'),
  ('AGTTTATC', 'Met'),
  ('CCCGCCAA', 'Not met'),
  ('AGTGCCAT', 'Not met'),
  ('ATCGACAA', 'Met'),
  ('AGATTCTC', 'Not met');
